Item-by-item account of Percent inhibition PANMI
Tested on: PANMI (wild proso millet)
assay-method-text: Pre-plant incorporated (PPI) herbicidal activity, warm season
Format: in vivo, Panicum miliaceum
particulars: PPI application, 30 g/ha
Unit % implied. Number only.

Reference set (2 entries):
- CCN(CC)C(=O)n1cnc(S(=O)(=O)C(F)(F)SCCOC)n1 [Example 13]: 90
- CCN(CC)C(=O)n1cnc(S(=O)(=O)C(F)(F)SCc2ccccc2)n1 [Example 10]: 0

Exam item: What value of measured Percent inhibition PANMI is listed for CCN(CC)C(=O)n1cnc(S(=O)(=O)C(F)(F)C(F)(F)Br)n1 [Example 4] ?
Marked response: 0

Exam item: Likewise for CCN(CC)C(=O)n1cnc(S(=O)(=O)C(F)(F)SCC(=O)OC)n1 [Example 11] ?
Marked response: 0

Exam item: Likewise for CCN(CC)C(=O)n1cnc(S(=O)(=O)C(F)(F)C(F)F)n1 [Example 16] ?
Marked response: 100

Exam item: Likewise for CCN(CC)C(=O)n1cnc(S(=O)(=O)C(F)(F)F)n1 [Example 2] ?
Marked response: 20

Exam item: Likewise for CCN(CC)C(=O)n1cnc(S(=O)(=O)C(F)(F)Cl)n1 [Example 3] ?
Marked response: 100

Exam item: Likewise for C=C(CC(F)(F)S(=O)(=O)c1ncn(C(=O)N(CC)CC)n1)C[Si](C)(C)C [Example 20] ?
Marked response: 20

Exam item: Likewise for CCN(CC)C(=O)n1cnc(S(=O)(=O)C(F)(F)SC)n1 [Example 9] ?
Marked response: 60

Source of measurements: patent US6461997B1
